- system_under_test: T1, HLA-B*07:02 (human, biotinylated heavy chain)
- T1 construct: Conditional HLA class I complex whose UV-labile peptide is exchanged for the test peptide
- run_description: UV-induced peptide exchange, HLA class I ELISA; Pos peptide = 100%;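 note: Streptavidin-captured biotinylated HLA class I complexes detected by HRP-conjugated anti-human B2M antibody, absorbance readout of intact complex amount after exchange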
metric: exchange rate with Pos peptide (%)
Could you give me the number in %? Just the number is fine.

// below: answered binders
binder	exchange rate with Pos peptide, %
NSKMALNSL (9-mer fragment of neoantigen P35; synthetic peptide) [P35 9-mer NSKMALNSL]	12.1
IQYSCMGLM (9-mer fragment of neoantigen P50; synthetic peptide) [P50 9-mer IQYSCMGLM]	10.4
FPVGAEGTF (9-mer fragment of neoantigen P27; synthetic peptide) [P27 9-mer FPVGAEGTF]	7.8
FFKRAAEGF (9-mer fragment of neoantigen P77 (AR-V3); synthetic peptide) [P77 9-mer FFKRAAEGF]	14.2
STRRAVRRM (9-mer fragment of neoantigen P16 (MSMB-NCOA4 fusion); synthetic peptide) [P16 9-mer STRRAVRRM]	13.7

For this binder ( NMVENGCYL (9-mer fragment of neoantigen P59; synthetic peptide) [P59 9-mer NMVENGCYL] ), measured exchange rate with Pos peptide is 7.5
